Here, each record is paired with measured Freezing Point data.
method.summary: Solvent freezing point
Format: physicochemical
Report as a plain number; the unit °C is understood.

CC(O)CO (stereo not shown)    −59.0
CO    −97.8
CC(C)O    −89.0

Would you kindly look at the next entry?
Prompt: Endpoint output: Freezing Point of CCCCOCCOC(C)=O [Ethylene Glycol N-Butyl Ether Acetate, ethylene glycol n-butyl ether acetate] . Value?
Response: −64.0

---

method.summary: Solvent flash point
Format: physicochemical
measurement.kind: Flash Point
# output: number + unit

CO    12 °C
CC(C)O    14 °C
CCCCOCCO    67.0 °C

Prompt: Endpoint output: Flash Point of CCCCOCCOC(C)=O [Ethylene Glycol N-Butyl Ether Acetate, ethylene glycol n-butyl ether acetate] . Value?
Response: 78 °C

Prompt: Continue with OCCO
Response: 116 °C

Prompt: Continue with CC(O)CO (stereo not drawn)
Response: 99.0 °C

---

method.summary: Solvent viscosity at 20° C.
Format: physicochemical
condition.context: 20° C./1 Bar
Here, each record is paired with measured log10 Viscosity data.
Answers are given as log10 of Viscosity in cP.

CCCCOCCO    0.46
CC(C)O    0.32
O    -0.05
CO    -0.23

Prompt: Endpoint output: log10 Viscosity of OCCO . Value?
Response: 1.24

Prompt: Continue with CCCCOCCOC(C)=O [Ethylene Glycol N-Butyl Ether Acetate, ethylene glycol n-butyl ether acetate]
Response: 0.26

Prompt: Continue with CC(O)CO (stereo not shown)
Response: 1.74

---

method.summary: Solvent freezing point
Assay type: physicochemical
Here, each record is paired with measured Freezing Point data.
# output: number + unit

Consider the reported Freezing Point for these compounds:
OCCO    −13.0 °C
CCCCOCCO    −75.0 °C

Would you kindly look at the next entry?
Prompt: Endpoint output: Freezing Point of O . Value?
Response: 0 °C
